From: ChEMBL document CHEMBL1156002

Entries and their inhibition zone (IZ) values follow.
# Tested on: Proteus vulgaris
# Procedure summary: Antibacterial activity against Proteus vulgaris ATCC 8427 after 24 hrs by agar disk diffusion assay; note: test concentration or dose not given here
# Format: functional

{"Smiles": "O=C1CSSCC(=O)Nc2nc(nc(-c3ccccc3)n2)NC(=O)CSSCC(=O)Nc2nc(nc(-c3ccccc3)n2)N1", "inhibition zone (IZ) / mm": 11}
{"Smiles": "O=C1CSCC(=O)Nc2nc(nc(-c3ccccc3)n2)NC(=O)CSCC(=O)Nc2nc(nc(-c3ccccc3)n2)N1", "inhibition zone (IZ) / mm": 12}
{"Smiles": "O=C1CCSSCCC(=O)Nc2nc(nc(-c3ccccc3)n2)NC(=O)CCSSCCC(=O)Nc2nc(nc(-c3ccccc3)n2)N1", "inhibition zone (IZ) / mm": 13}
{"Smiles": "O=C1CCSCCC(=O)Nc2nc(nc(-c3ccccc3)n2)NC(=O)CCSCCC(=O)Nc2nc(nc(-c3ccccc3)n2)N1", "inhibition zone (IZ) / mm": 11}

====

# System: Staphylococcus aureus
# Procedure summary: Antibacterial activity against Staphylococcus aureus ATCC 6538 after 24 hrs by broth micro dilution method
# Type: functional
# Conditions: ATCC 6538, 24 h

{"Smiles": "O=C1CCSCCC(=O)Nc2nc(nc(-c3ccccc3)n2)NC(=O)CCSCCC(=O)Nc2nc(nc(-c3ccccc3)n2)N1", "Display unit": "µg/mL", "MIC": 25}
{"Smiles": "O=C1CSCC(=O)Nc2nc(nc(-c3ccccc3)n2)NC(=O)CSCC(=O)Nc2nc(nc(-c3ccccc3)n2)N1", "Display unit": "µg/mL", "MIC": 12.5}
{"Smiles": "O=C1CSSCC(=O)Nc2nc(nc(-c3ccccc3)n2)NC(=O)CSSCC(=O)Nc2nc(nc(-c3ccccc3)n2)N1", "Display unit": "µg/mL", "MIC": 12.5}
{"Smiles": "O=C1CCSSCCC(=O)Nc2nc(nc(-c3ccccc3)n2)NC(=O)CCSSCCC(=O)Nc2nc(nc(-c3ccccc3)n2)N1", "Display unit": "µg/mL", "MIC": 12.5}
